Target: T1, human GIP receptor (human, UniProt P48546 22-466)
T1 sequence (looked up): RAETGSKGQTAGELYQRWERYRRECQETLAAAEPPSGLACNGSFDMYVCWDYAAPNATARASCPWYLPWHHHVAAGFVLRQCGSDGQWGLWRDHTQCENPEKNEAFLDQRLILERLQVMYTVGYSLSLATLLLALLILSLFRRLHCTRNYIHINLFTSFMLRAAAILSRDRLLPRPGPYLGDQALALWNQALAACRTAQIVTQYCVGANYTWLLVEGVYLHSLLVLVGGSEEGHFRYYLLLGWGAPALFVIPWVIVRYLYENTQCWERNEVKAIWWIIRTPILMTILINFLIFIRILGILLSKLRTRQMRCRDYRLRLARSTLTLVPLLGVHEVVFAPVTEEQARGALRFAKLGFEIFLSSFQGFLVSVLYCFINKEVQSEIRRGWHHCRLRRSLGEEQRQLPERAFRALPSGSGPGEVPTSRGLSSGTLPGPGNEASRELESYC
Assay: cell-based or functional assay
Starred links: 1 amine or outer side, 2 acyl side, 3 side chain; linkers in the order of their positions; H or OH if unused. Non-standard residues stand in square brackets, D forms with d. Groups on a side chain read outwards from the residue. No end group written: not given here. *: point of attachment. C18 diacid = O=C(O)CCCCCCCCCCCCCCCCC(=O)*; γGlu = O=C(O)[C@H](CCC(=O)[*:2])N[*:1]; AEEA = NCCOCCOCC(=O)O; Aib = CC(C)(N)C(=O)O
recorded endpoint: EC50 CreLuc hGIPR 100% hP (nM)
Use nM as the unit, but write only the number.

# annotated cases, reported EC50 CreLuc hGIPR 100% hP shown
{"columns": ["binder", "observed"],
 "data": [
  ["YXEGTFTSDYSIXLERQAQXAFVEWLIKGGPSSGASLRHYYNWLTRQRY (Aib at 2, 13, 20; K28 side chain: C20DA-gGlu-gGlu-gGlu-gGlu-gGlu-gGlu-eLys; C-terminal NH2) [Compound 131]", 2.94],
  ["YXEGTFTSDYSIXLEKQAQXAFVEWLIKGGPSSGASLRHYINWLTRQRY (Aib at 2, 13, 20; K28 side chain: C20DA-gGlu-gGlu-gGlu-gGlu-gGlu-gGlu-eLys; C-terminal NH2) [Compound 106]", 2.17],
  ["YXEGTFTSDYSIXLEKQAQXAFVEWLIKGGPSSPASLRHYYNWLTRQRY (Aib at 2, 13, 20; K28 side chain: C20DA-gGlu-gGlu-gGlu-gGlu-gGlu-gGlu-eLys; C-terminal NH2) [Compound 95]", 0.75],
  ["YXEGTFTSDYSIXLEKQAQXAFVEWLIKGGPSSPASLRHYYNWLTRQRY (Aib at 2, 13, 20; K28 side chain: C18DA-gGlu-gGlu-gGlu-gGlu-gGlu-OEG-OEG; C-terminal NH2) [Compound 140]", 1.2]
]}

Please examine the following record next.
Query (binder): Y[Aib]EGTFTSDYSI[Aib]LEKQAQ[Aib]AFVEWLIK([AEEA-AEEA-γGlu-γGlu-γGlu-γGlu-C18 diacid])GGPEEPASLRHYYNWLTRQRY-NH2 [Compound 161] ; field requested: EC50 CreLuc hGIPR 100% hP
1.23
